# Test system: Surinam grass (Brachiaria decumbens)
# assay-remarks: Test B pre/postemergence
# Format: in vivo
# cond: Urochloa decumbens, pre-emergence, Preemergence, 125 g ai/ha; scale 0 to 100 (0 no effect, 100 complete control); read-out: Plant response rating, Surinam Grass
// values below are reported pest or weed control at 125 g/ha
reported-metric: pest or weed control at 125 g/ha

smiles_repr=Nc1nc(C2CC2)nc(C=O)c1Br endpoint_result=10%
smiles_repr=Nc1nc(C2CC2)nc(C=O)c1F endpoint_result=10%
smiles_repr=COC(=O)c1nc(C2CC2)nc(N)c1Br endpoint_result=40%
smiles_repr=CNc1nc(C2CC2)nc(C(=O)OC)c1Cl endpoint_result=0%
smiles_repr=Nc1nc(C2CC2)nc(C(=O)OCc2ccccc2)c1Cl endpoint_result=90%
smiles_repr=COC(=O)c1nc(C2CC2)nc(N)c1F endpoint_result=20%
smiles_repr=CCOC(=O)c1nc(C2CC2)nc(NN)c1Br endpoint_result=0%
smiles_repr=COC(=O)c1nc(-c2ccccc2)nc(N)c1Br endpoint_result=0%
smiles_repr=CCOC(=O)c1nc(-c2ccc(Br)cc2)nc(N)c1Cl endpoint_result=30%

###

# Test system: redroot pigweed (Amaranthus retroflexus)
# assay-remarks: Test A pre/postemergence
# Assay type: in vivo
# cond: Postemergence, 500 g ai/ha; 0 to 100 scale (0 no effect, 100 complete control)
// values below are reported Plant response rating, Pigweed
reported-metric: Plant response rating, Pigweed

molecule=CCOC(=O)c1nc(-c2ccc(C)c(C)c2)nc(N)c1Br endpoint_result=20
molecule=CCOC(=O)c1nc(-c2cccc(Cl)c2)nc(N)c1Cl endpoint_result=25
molecule="CCOC(=O)C(O)c1nc(C2CC2)nc(N)c1Br (centres unmarked)" endpoint_result=75
molecule=CCCOC(=O)c1nc(C2CC2)nc(N)c1Cl endpoint_result=100
molecule=CCOC(=O)c1nc(-c2ccc(OC(F)(F)F)cc2)nc(N)c1Cl endpoint_result=20

###

# Test system: velvetleaf (Abutilon theophrasti)
# assay-remarks: Test A pre/postemergence
# Type: in vivo
# cond: Postemergence, 500 g ai/ha; 0 to 100 scale (0 no effect, 100 complete control)
Rule: t for Plant response rating, Velvetleaf not less than 60, f for anything less.

compound=COC(=O)c1nc(-c2ccc(F)cc2)nc(N)c1Br label_value=t
compound="CCOC(=O)C(O)c1nc(C2CC2)nc(N)c1Br (stereo not drawn)" label_value=f
compound=CCOC(=O)c1nc(-c2ccc(C)c(C)c2)nc(N)c1Cl label_value=f
compound=CC(C)=NOC(=O)c1nc(C2CC2)nc(N)c1Cl label_value=t
compound=COC(=O)c1nc(-c2ccc(SC)cc2)nc(N)c1Cl label_value=f
compound="Nc1nc(C2CC2)nc(C(=O)OCC2CCCO2)c1Cl (stereo not drawn)" label_value=t

###

# System: morningglory (Ipomoea spp.)
# assay-remarks: Test A pre/postemergence
# Type: in vivo
# cond: Postemergence, 500 g ai/ha; 0 to 100 scale (0 no effect, 100 complete control)
// assign TRUE if Plant response rating, Morningglory falls strictly below 30, else FALSE (ties count as FALSE)

compound=CCOC(=O)c1nc(-c2ccc(C(F)(F)F)cc2)nc(N)c1Cl experimental_target="morningglory (Ipomoea spp.)" label_value=FALSE
compound=CCOC(=O)c1nc(-c2ccc(Cl)cc2Cl)nc(N)c1Cl experimental_target="morningglory (Ipomoea spp.)" label_value=FALSE
compound="Nc1nc(C2CC2)nc(C(=O)OCC2CCCO2)c1Cl (centres unmarked)" experimental_target="morningglory (Ipomoea spp.)" label_value=FALSE
compound=CS(=O)(=O)NC(=O)c1nc(-c2ccc(Cl)cc2)nc(N)c1Cl experimental_target="morningglory (Ipomoea spp.)" label_value=TRUE
compound=NC(=O)c1nc(-c2ccc(Br)cc2)nc(N)c1Br experimental_target="morningglory (Ipomoea spp.)" label_value=TRUE
compound=Nc1nc(C2CC2)nc(C(=O)OCCCOC(=O)c2nc(C3CC3)nc(N)c2Cl)c1Cl experimental_target="morningglory (Ipomoea spp.)" label_value=FALSE
compound=CC(C)OC(=O)c1nc(-c2ccc(Cl)cc2)nc(N)c1Cl experimental_target="morningglory (Ipomoea spp.)" label_value=TRUE
compound=CCCOC(=O)c1nc(C2CC2)nc(N)c1Cl experimental_target="morningglory (Ipomoea spp.)" label_value=FALSE
compound=CCCCOCCOC(=O)c1nc(C2CC2)nc(N)c1Cl experimental_target="morningglory (Ipomoea spp.)" label_value=FALSE
compound=CCOC(=O)c1nc(-c2cccc(C(F)(F)F)c2)nc(N)c1Cl experimental_target="morningglory (Ipomoea spp.)" label_value=TRUE
compound="CC1(C)OCC(COC(=O)c2nc(C3CC3)nc(N)c2Cl)O1 (centres unmarked)" experimental_target="morningglory (Ipomoea spp.)" label_value=FALSE
compound="Nc1nc(C2CC2)nc(C(=O)OCC2CO2)c1Cl (centres unmarked)" experimental_target="morningglory (Ipomoea spp.)" label_value=FALSE
compound=CCOC(=O)c1nc(-c2ccc(I)cc2)nc(N)c1Cl experimental_target="morningglory (Ipomoea spp.)" label_value=FALSE
compound=CCOC(=O)c1nc(-c2ccc(Cl)c(Cl)c2)nc(N)c1Cl experimental_target="morningglory (Ipomoea spp.)" label_value=FALSE
compound=COC(=O)c1nc(-c2ccc(C)cc2)nc(N)c1Cl experimental_target="morningglory (Ipomoea spp.)" label_value=TRUE
compound=CCOC(=O)c1nc(-c2ccc(Cl)cc2Cl)nc(N)c1Br experimental_target="morningglory (Ipomoea spp.)" label_value=FALSE
compound=Nc1nc(C2CC2)nc(C(=O)Oc2ccc(Cl)cc2)c1Cl experimental_target="morningglory (Ipomoea spp.)" label_value=FALSE
compound=CCOC(=O)c1nc(-c2ccc(C)c(C)c2)nc(N)c1Br experimental_target="morningglory (Ipomoea spp.)" label_value=TRUE
compound=CC(C)=NOC(=O)c1nc(C2CC2)nc(N)c1Cl experimental_target="morningglory (Ipomoea spp.)" label_value=FALSE
compound=CCOC(=O)c1nc(-c2ccc(CC)cc2)nc(N)c1Cl experimental_target="morningglory (Ipomoea spp.)" label_value=TRUE
compound=COC(OC)c1nc(-c2ccc(I)cc2)nc(N)c1Cl experimental_target="morningglory (Ipomoea spp.)" label_value=TRUE
compound=CC(C)N.Nc1nc(C2CC2)nc(C(=O)O)c1Cl experimental_target="morningglory (Ipomoea spp.)" label_value=FALSE

###

# System: wheat (Triticum aestivum)
# assay-remarks: Test B pre/postemergence
# Assay type: in vivo
# cond: Triticum aestivum, pre-emergence, Preemergence, 500 g ai/ha; scale 0 to 100 (0 no effect, 100 complete control); read-out: Wheat plant response rating
reported-metric: plant injury at 500 g/ha (%)

smiles_repr=Nc1nc(C2CC2)nc(C(=O)OCc2ccccc2)c1Br endpoint_result=50
smiles_repr=CNc1nc(C2CC2)nc(C(=O)OC)c1Br endpoint_result=50
smiles_repr=Nc1nc(C2CC2)nc(C(=O)O)c1Br endpoint_result=80
smiles_repr=Nc1nc(C2CC2)nc(C=O)c1Br endpoint_result=60

###

# System: crabgrass (Digitaria sanguinalis)
# assay-remarks: Test B pre/postemergence
# Format: in vivo
# cond: Postemergence, 500 g ai/ha; scale 0 to 100
// assign 1 (yes) if Plant response rating, Crabgrass falls strictly below 50, else 0 (no) (ties count as 0 (no))

compound="CCOC(=O)C(C)c1nc(C2CC2)nc(N)c1Br (centres unmarked)" label_value="1 (yes)"
compound=CC=NNc1nc(C2CC2)nc(C(=O)OC)c1Br label_value="1 (yes)"
compound=CCOC(=O)c1nc(C2CC2)nc(N=CN(C)C)c1Br label_value="0 (no)"
compound=CCOC(=O)c1nc(C2CC2)nc(NNC(C)=O)c1Br label_value="1 (yes)"
compound=COC(=O)c1nc(C2CC2)nc(N=CN(C)C)c1Br label_value="0 (no)"
compound=CCOC(=O)Cc1nc(C2CC2)nc(N)c1Br label_value="1 (yes)"
compound=CC(=O)NN=Cc1nc(C2CC2)nc(N)c1Br label_value="0 (no)"

###

# System: johnsongrass (Sorghum halepense)
# assay-remarks: Test C pre/postemergence
# Type: in vivo
# cond: Sorghum halepense, post-emergence, Postemergence, 125 g ai/ha; scale 0 to 100 (0 no effect, 100 complete control); read-out: Johnsongrass plant response rating
reported-metric: pest or weed control at 125 g/ha (%)

compound="CCOC(=O)c1nc(C2CC2)nc(NN)c1Br [Compound 42]" scale_unit=% endpoint_result=0
compound="COC(=O)c1nc(C2CC2)nc(N)c1I [Compound 7]" scale_unit=% endpoint_result=0
compound="CCOC(=O)c1nc(C2CC2)nc(N)c1F [Compound 30]" scale_unit=% endpoint_result=10
compound="Nc1nc(C2CC2)nc(C(=O)OCc2ccccc2)c1Br [Compound 22]" scale_unit=% endpoint_result=80
compound="COC(=O)c1nc(C2CC2)nc(N)c1Cl [Compound 9]" scale_unit=% endpoint_result=80
